Experimental target: T1, human common cytokine receptor γ-chain (γc; IL-2Rγ; CD132), recombinant protein (human) (UniProt P31785)
T1 sequence: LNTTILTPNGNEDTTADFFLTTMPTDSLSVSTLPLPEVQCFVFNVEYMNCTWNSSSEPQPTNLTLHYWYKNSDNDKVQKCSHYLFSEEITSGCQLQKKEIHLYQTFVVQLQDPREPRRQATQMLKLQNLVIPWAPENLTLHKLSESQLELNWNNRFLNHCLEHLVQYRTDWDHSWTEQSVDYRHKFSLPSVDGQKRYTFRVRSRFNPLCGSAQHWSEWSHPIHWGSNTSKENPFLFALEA
Test details: ELISA, monovalent VHH-hFc
Result type: EC50 (nM)
Express the result in nM but write the number alone.

Binder	EC50 (nM)
28-MP04D02 VHH-hFc, monospecific monovalent (Fc fusion, part only; not given: Both Fc arms and linker, not shown: another chain or arm of the molecule; a dimerising Fc or GST; large carriers; small tags and cut ends) VHH: QVQLVESGGGLVQAGGSLRLSCAASGRTLSRYAMGWFRQAPGKEREFVTANSWGGDTYYADSVQGRFTFSRDNAKNTVYLQMNSLQPEDTAVYYCAAAPTSFATTAYSGSNSYAYWGQGTQVTVSS	0.62
29-MP04H02 VHH-hFc, monospecific monovalent (Fc fusion, part only; not given: Both Fc arms and linker, not shown: another chain or arm of the molecule; a dimerising Fc or GST; large carriers; small tags and cut ends) VHH: QVQLVESGGGLVQAGGSLRLACVASGLTFDNYYMGWFRQAPGKEREFVAGIIWNGDHTAYADSIKGRFTISRDNAKNTAYLRMNSLKPEDTAVYYCAATFWIERATTPDIGQYAYWGQGTQVTVSS	0.683

Turning to the following binder.
The reported EC50 of the binder 27-MP04G01 VHH-hFc, monospecific monovalent (Fc fusion, part only; not given: Both Fc arms and linker, not shown: another chain or arm of the molecule; a dimerising Fc or GST; large carriers; small tags and cut ends) VHH: QVQLVESGGGLVQAGGSLTLSCAAPGRTFGTDVVGWFRQAPGKEREFVASISRSGDGIYYDDSVKGRFTISRNNAWNTVNLQMNSLKVEDTAVYYCAAGDGWSTYDYWGQGTQVTVSS was 0.155

Where these numbers come from: patent US20240409645A1
